subject of test: CFTR (Homo sapiens, UniProt P13569)
Construct: endogenous in cells; host or cells: T84 human colonic cells (ECACC)
Sequence (P13569 whole entry): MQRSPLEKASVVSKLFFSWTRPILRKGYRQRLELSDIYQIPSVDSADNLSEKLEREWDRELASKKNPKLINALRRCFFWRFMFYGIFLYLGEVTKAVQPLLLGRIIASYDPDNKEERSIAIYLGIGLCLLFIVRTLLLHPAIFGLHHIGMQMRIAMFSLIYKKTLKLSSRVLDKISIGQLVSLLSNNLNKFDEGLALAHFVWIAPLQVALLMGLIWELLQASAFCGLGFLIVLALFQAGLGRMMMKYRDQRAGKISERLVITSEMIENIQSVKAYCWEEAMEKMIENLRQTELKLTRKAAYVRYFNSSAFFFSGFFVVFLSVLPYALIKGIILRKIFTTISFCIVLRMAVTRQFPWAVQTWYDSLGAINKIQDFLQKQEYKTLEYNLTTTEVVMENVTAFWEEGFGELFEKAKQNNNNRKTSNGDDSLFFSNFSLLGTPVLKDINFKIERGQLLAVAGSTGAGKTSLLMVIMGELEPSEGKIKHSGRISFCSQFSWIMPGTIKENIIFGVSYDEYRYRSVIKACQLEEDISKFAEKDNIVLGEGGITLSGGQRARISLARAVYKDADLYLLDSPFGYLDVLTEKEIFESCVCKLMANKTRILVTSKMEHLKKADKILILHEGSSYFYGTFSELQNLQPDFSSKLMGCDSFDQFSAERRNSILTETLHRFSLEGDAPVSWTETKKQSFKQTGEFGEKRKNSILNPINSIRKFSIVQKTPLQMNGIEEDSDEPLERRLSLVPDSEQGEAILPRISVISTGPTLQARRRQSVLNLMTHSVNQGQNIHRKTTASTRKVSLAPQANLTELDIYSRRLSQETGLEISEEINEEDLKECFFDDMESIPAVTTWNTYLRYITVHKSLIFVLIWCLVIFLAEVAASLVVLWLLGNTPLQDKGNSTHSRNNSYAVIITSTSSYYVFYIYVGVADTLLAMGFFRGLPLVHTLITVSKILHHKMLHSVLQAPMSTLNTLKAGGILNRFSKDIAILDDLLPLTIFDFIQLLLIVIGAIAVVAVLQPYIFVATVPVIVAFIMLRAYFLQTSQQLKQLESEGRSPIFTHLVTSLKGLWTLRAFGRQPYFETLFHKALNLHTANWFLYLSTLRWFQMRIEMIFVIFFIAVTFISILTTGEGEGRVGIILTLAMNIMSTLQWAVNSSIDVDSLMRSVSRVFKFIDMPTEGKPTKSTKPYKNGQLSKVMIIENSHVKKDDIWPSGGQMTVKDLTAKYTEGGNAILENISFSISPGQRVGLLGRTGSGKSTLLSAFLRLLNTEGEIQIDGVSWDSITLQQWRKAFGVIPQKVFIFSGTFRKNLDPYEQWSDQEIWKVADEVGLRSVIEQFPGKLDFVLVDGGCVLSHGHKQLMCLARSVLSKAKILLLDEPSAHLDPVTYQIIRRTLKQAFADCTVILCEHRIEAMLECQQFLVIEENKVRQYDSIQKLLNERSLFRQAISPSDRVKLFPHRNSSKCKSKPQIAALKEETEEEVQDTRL
assay overview: T84 assay (FLIPR membrane potential dye, forskolin/IBMX-stimulated CFTR channel activity)
Type: cell-based
conditions: imidazole and triazole-containing compounds (Tables 13, 14, 14′), read-out: IC50 (μM) (T84 assay)
# class assignment by measured IC50: 1: < 3 µM; 2: ≥ 3 µM and < 9 µM; 3: ≥ 9 µM

Incoming: Class for CN(Cc1ccc(Cl)cc1)C(=O)c1ncn(-c2cc(Cl)c(O)c(Cl)c2)n1 [22i] ?
Outgoing: 3

Incoming: Class for CC(C)(C)c1ccc(Oc2ccc(CNC(=O)c3ncn(-c4cc(Cl)c(O)c(Cl)c4)n3)cc2)cc1 [68i] ?
Outgoing: 2

Incoming: Class for Oc1c(Cl)cc(-n2cnc(C(O)(c3cc(F)cc(F)c3)c3cc(F)cc(F)c3)n2)cc1Cl [52i] ?
Outgoing: 3

Incoming: Class for CCON(Cc1ccc(Oc2ccccc2)cc1)C(=O)c1ncn(-c2cc(Cl)c(O)c(Cl)c2)n1 [130i] ?
Outgoing: 1

Incoming: Class for CC(C)(C)CCN(Cc1cccnc1)C(=O)c1ncn(-c2cc(Cl)c(O)c(Cl)c2)n1 [78i] ?
Outgoing: 3

Incoming: Class for O=C(NCc1cc(Cl)cc(Cl)c1)c1ncn(-c2cc(Cl)c(O)c(Cl)c2)n1 [36i] ?
Outgoing: 2

Incoming: Class for O=C(c1ncn(-c2cc(Cl)c(O)c(Cl)c2)n1)N(Cc1ccccc1)Cc1cccc(OC(F)(F)F)c1 [84i] ?
Outgoing: 2

Incoming: Class for O=C(NCc1ccc(Oc2ccc(F)c(C(F)(F)F)c2)cc1)c1ncn(-c2cc(Cl)c(O)c(Cl)c2)n1 [67i] ?
Outgoing: 2

Incoming: Class for CC(C)(C)CCN(Cc1ccc(C(C)(C)C)cc1)C(=O)c1ncn(-c2cc(Cl)c(O)c(Cl)c2)n1 [106i] ?
Outgoing: 1

Incoming: Class for CCN(Cc1ccc(Oc2ccccc2)cc1)C(=O)c1ncn(-c2cc(Cl)c(O)c(Cl)c2)n1 [86i] ?
Outgoing: 1

Incoming: Class for C=CCN(Cc1ccc(Cl)c(Cl)c1)C(=O)c1ncn(-c2cc(Cl)c(O)c(Cl)c2)n1 [102i] ?
Outgoing: 1

Incoming: Class for O=C(NCc1ccc(Oc2ccccc2)cc1)c1ncn(-c2cc(Cl)c(O)c(Cl)c2)n1 [49i] ?
Outgoing: 1

Incoming: Class for O=C(c1ccccc1)C1CCN(C(=O)c2ncn(-c3cc(Cl)c(O)c(Cl)c3)n2)CC1 [61i] ?
Outgoing: 3

Incoming: Class for O=C(NCCC(c1ccccc1)c1ccccc1)c1ncn(-c2cc(Cl)c(O)c(Cl)c2)n1 [31i] ?
Outgoing: 1

Incoming: Class for O=C(NCc1cccc(OC(F)(F)F)c1)c1cn(-c2cc(Br)c(O)c(Br)c2)cn1 [20i] ?
Outgoing: 3

###

subject of test: CHO-CFTR cell line (Homo sapiens)
Construct: expressed in transfected cells; host or cells: CHO (CHO-CFTR cell line)
Sequence (P13569 whole entry): as above
assay overview: CHO-CFTR assay (FLIPR assay, same conditions as the T84 assay)
Format: cell-based
conditions: imidazole and triazole-containing compounds
Simple rule here: IC50 less than 30 µM is yes (1), otherwise no (0).

Incoming: In plain terms, does O=C(c1ncn(-c2cc(Cl)c(O)c(Cl)c2)n1)N(Cc1ccccc1)Cc1cccnc1 [75i] come in under 30 µM for IC50?
Outgoing: no (0)

Incoming: In plain terms, does O=C(NCc1ccc(Oc2cc(C(F)(F)F)cc(C(F)(F)F)c2)cc1)c1ncn(-c2cc(Cl)c(O)c(Cl)c2)n1 [62i] come in under 30 µM for IC50?
Outgoing: yes (1)

Incoming: In plain terms, does C=CCN(Cc1cccc(OC(F)(F)F)c1)C(=O)c1ncn(-c2cc(Cl)c(O)c(Cl)c2)n1 [103i] come in under 30 µM for IC50?
Outgoing: no (0)

Incoming: In plain terms, does CC(C)(C)CCN(Cc1ccc(C(C)(C)C)cc1)C(=O)c1ncn(-c2cc(Cl)c(O)c(Cl)c2)n1 [106i] come in under 30 µM for IC50?
Outgoing: yes (1)

Incoming: In plain terms, does O=C(NCc1cc(C(F)(F)F)ccc1F)c1ncn(-c2cc(Cl)c(O)c(Cl)c2)n1 [40i] come in under 30 µM for IC50?
Outgoing: yes (1)

Incoming: In plain terms, does O=C(NCC(c1ccccc1)c1ccccc1)c1ncn(-c2cc(Cl)c(O)c(Cl)c2)n1 [44i] come in under 30 µM for IC50?
Outgoing: yes (1)

Incoming: In plain terms, does O=C(c1ncn(-c2cc(Cl)c(O)c(Cl)c2)n1)N(Cc1ccc(Oc2ccccc2)cc1)Cc1cccnc1 [91i] come in under 30 µM for IC50?
Outgoing: yes (1)

Incoming: In plain terms, does CON(Cc1ccc(Cl)c(Cl)c1)C(=O)c1ncn(-c2cc(Cl)c(O)c(Cl)c2)n1 [126i] come in under 30 µM for IC50?
Outgoing: yes (1)
